Assay: Pharmacokinetic study of FAM tablet in the rat
Format: in vivo, Wistar rats
Conditions: Wistar, plasma, intravenous, single injection of FAM solution in DMSO (0.04 mg/kg) into the femoral vein, read-out: Elimination rate constant (k e) (converted)
value-kind: k el
Mention the unit after the number when you answer.

Task item: Report k el for NC(N)=Nc1nc(CSCCC(N)=NS(N)(=O)=O)cs1 please.
Reply: 2.17e-05 s⁻¹

---

Experiment: Pharmacokinetic study of FAM tablet in the rat
Type: in vivo, Wistar rats
Details: Wistar, plasma, intravenous, single injection of FAM solution in DMSO (0.04 mg/kg) into the femoral vein, read-out: Distribution volume (V d)
value-kind: Vd
Mention the unit after the number when you answer.

Task item: Report Vd for NC(N)=Nc1nc(CSCCC(N)=NS(N)(=O)=O)cs1 please.
Reply: 0.064 L

Every entry's value here was drawn from paper PMC10036753.
